The values you see were collected from patent US20230331737A1.

The following compounds have recorded Kd on FKBP12 (Homo sapiens, UniProt P62942).
Sequence (P62942 whole entry, species assumed): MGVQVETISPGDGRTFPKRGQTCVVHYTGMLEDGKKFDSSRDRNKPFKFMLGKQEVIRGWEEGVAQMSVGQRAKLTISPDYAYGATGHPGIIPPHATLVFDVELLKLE

mol	Kd
COCCO[C@@H]1C[C@@H]2CC[C@@H](C)[C@@](O)(O2)C(=O)C(=O)N2CCCC[C@H]2C(=O)O[C@H]([C@H](C)C[C@@H]2CC[C@@H](O)[C@H](OC)C2)CC(=O)[C@H](C)/C=C(\C)[C@@H](O)[C@@H](OC)C(=O)[C@H](C)C[C@H](C)/C=C/C=C/C=C/1C	0.3 to 1 nM
COCCO[C@H]1C[C@@H]2CC[C@@H](C)[C@@](O)(O2)C(=O)C(=O)N2CCCC[C@H]2C(=O)O[C@H]([C@H](C)C[C@@H]2CC[C@@H](OCCO)[C@H](OC)C2)CC(=O)[C@H](C)/C=C(\C)[C@@H](O)[C@@H](OC)C(=O)[C@H](C)C[C@H](C)/C=C/C=C/C=C/1C	0.3 to 1 nM
CO[C@@H]1C[C@H](C[C@@H](C)[C@@H]2CC(=O)[C@H](C)/C=C(\C)[C@@H](O)[C@@H](OC)C(=O)[C@H](C)C[C@H](C)/C=C/C=C/C=C(\C)[C@@H](OCC3COC3)C[C@@H]3CC[C@@H](C)[C@@](O)(O3)C(=O)C(=O)N3CCCC[C@H]3C(=O)O2)CC[C@H]1OCCO	0.3 to 1 nM
